All figures here come from patent US7557133B2.

# System: Jurkat cell (ATCC TIB-152)
# test.method.notes: Jurkat cell apoptosis by Fas antibody, WST-1 method
# Assay type: cell-based
# measurement.conditions: Homo sapiens, Jurkat, apoptosis using Fas antibody, WST-1
readout: IC50 (nM)

P = CCC1(C(=O)NC(CC(=O)O)C(=O)CF)CC(c2cc(CC(C)C)ccn2)=NO1 (stereo not shown)
Q = Cc1ccc2c(c1)cc(C1=NOC(C(=O)NC(CC(=O)O)C(=O)CF)(C(C)C)C1)n2C (stereo not shown)
R = CCC1(C(=O)NC(CC(=O)O)C(=O)CF)CC(c2nccc3ccccc23)=NO1 (stereo not shown)
S = CCC1(C(=O)N[C@@H](CC(=O)O)C(=O)COc2c(F)c(F)cc(F)c2F)CC(c2ccccc2)=NO1 (stereo partly shown)
## Input Please list the entries, largest IC50 first. # output: labels, in the requested order
## Output S, P, Q, R
(S: 22500 nM, P: 1020 nM, Q: 600 nM, R: 170 nM)

P = CC(C)C1(C(=O)NC(CC(=O)O)C(=O)CF)CC(c2cc3cc(Cl)ccc3n2C)=NO1 (stereo not shown)
Q = CC[C@@]1(C(=O)NC(CC(=O)O)C(=O)CF)CC(c2ccc3ccccc3n2)=NO1 (stereo partly shown)
## Input I'd appreciate it if you could identify which of P and Q has the greater IC50. Refer to your chosen item by its label in the answer.
## Output P
(P: 1300 nM, Q: 150 nM)

----------
# study.system: caspase-8 (Homo sapiens)
# Construct: p10 and p20 subunits (Thornberry, N. A. et al, Nature, 1992, 356, 768) were expressed in E. coli; made in house; host or cells: E. coli
# Sequence (Q14790 217-374 limits assumed, species assumed): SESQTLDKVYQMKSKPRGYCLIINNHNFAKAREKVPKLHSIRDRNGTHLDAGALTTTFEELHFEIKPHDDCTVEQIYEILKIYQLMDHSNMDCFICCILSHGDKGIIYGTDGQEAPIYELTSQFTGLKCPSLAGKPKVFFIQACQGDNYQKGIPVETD
# Sequence (Q14790 385-479 limits assumed, species assumed): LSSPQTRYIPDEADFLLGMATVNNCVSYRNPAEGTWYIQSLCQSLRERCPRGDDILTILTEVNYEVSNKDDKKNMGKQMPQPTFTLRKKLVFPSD
# test.method.notes: Caspase-8 inhibitory effect (fluorescent substrate AcDEVD-AFC)
# Format: biochemical
# measurement.conditions: pH 7.5; 25° C., 50 μM AcDEVD-AFC, 2.1 nM caspase-8; read-out: Caspase-8 Kobs/[I] (converted)
readout: kinact/KI (M⁻¹ s⁻¹)

Some solved cases for reference:
| molecule | test.result |
| --- | --- |
| CCC1(C(=O)NC(CC(=O)O)C(=O)CF)CC(c2ccc(C(C)(C)C)cc2)=NO1 (centres unmarked) [Iaa3] | 2330 |
| CC(C)[C@@]1(C(=O)N[C@H](CC(=O)O)C(=O)CF)CC(c2nccc3ccccc23)=NO1 [Iii-2] | 7830 |
| CCC1(C(=O)NC(CC(=O)O)C(=O)CF)CC(c2cccc3cccnc23)=NO1 (centres unmarked) [Ixx] | 667 |

A = CCC1(C(=O)NC(CC(=O)O)C(=O)CF)CC(c2cccc(C(C)(C)C)c2)=NO1 (centres unmarked) [Iaa2]
B = CC(C)[C@@]1(C(=O)N[C@@H](CC(=O)O)C(=O)COc2cccc[n+]2C)CC(c2nccc3ccccc23)=NO1.O=S(=O)([O-])C(F)(F)F [Iaa25]
C = CCC1(C(=O)NC(CC(=O)O)C(=O)CF)CC(c2nccc3c2CCCC3)=NO1 (centres unmarked) [Iaa16]
D = CCC1(C(=O)NC(CC(=O)O)C(=O)CF)CC(c2nccc3ccccc23)=NO1 (centres unmarked) [Igg]
E = CC(C)[C@@]1(C(=O)N[C@@H](CC(=O)O)C(=O)COC2=C(Cc3ccccc3)C(=O)OC2)CC(c2nccc3ccccc23)=NO1 [Iaa20]
## Input # rank_down: sort by kinact/KI, max first # output: labels, in the requested order
## Output D, C, A, B, E
(D: 25000 M⁻¹ s⁻¹, C: 10300 M⁻¹ s⁻¹, A: 5330 M⁻¹ s⁻¹, B: 2830 M⁻¹ s⁻¹, E: 617 M⁻¹ s⁻¹)
